# SUBJECT_OF_TEST: Estrogen receptor beta (Homo sapiens)
# Sequence (Q92731 whole entry): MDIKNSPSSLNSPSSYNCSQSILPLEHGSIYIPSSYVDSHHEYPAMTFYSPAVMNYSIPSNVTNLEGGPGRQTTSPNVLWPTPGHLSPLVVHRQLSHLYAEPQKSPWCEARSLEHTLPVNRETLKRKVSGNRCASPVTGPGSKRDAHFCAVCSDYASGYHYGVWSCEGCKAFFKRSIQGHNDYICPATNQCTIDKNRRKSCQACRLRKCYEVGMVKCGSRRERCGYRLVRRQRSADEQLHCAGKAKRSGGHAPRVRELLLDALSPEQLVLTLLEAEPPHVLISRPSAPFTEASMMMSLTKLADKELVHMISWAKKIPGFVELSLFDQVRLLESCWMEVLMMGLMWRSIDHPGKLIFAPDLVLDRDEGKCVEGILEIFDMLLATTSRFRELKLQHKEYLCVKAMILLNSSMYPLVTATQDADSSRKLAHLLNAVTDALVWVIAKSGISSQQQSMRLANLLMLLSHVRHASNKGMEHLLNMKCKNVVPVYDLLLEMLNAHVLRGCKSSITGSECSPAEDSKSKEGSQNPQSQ
# MEASUREMENT_NOTES: Agonist activity at ERbeta (unknown origin) expressed in HEK293T cells assessed as transcriptional activity after 24 hrs by dual luciferase reporter gene assay
READOUT_NAME: pEC50
As a rule, pEC50 stands for the negative log10 of the concentration, concentration in M.

Incoming: Could you share what pEC50 was measured for "Cc1cc(O)ccc1-c1ccc(-c2ccc(OCCN3CCCC3)cc2C)[se]1" , tested on Estrogen receptor beta (Homo sapiens)?
Outgoing: 6.62

Incoming: Request - read-out pEC50 | tested on Estrogen receptor beta (Homo sapiens) | compound "Oc1ccc(-c2c[se]cc2-c2ccc(OCCN3CCCCC3)cc2)cc1"
Outgoing: 5.94
